Value source: the supplement of paper PMC10567573

# assay.overview: protein stability index of a GFP-peptide fusion (GPS, HEK-293T) (PSI 1-6); higher = more stable;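 further: 24-mer peptide tiles fused after GFP, lentivirally expressed, FACS-sorted into six equal bins by GFP/DsRed ratio, decoded by Illumina sequencing, PSI is the read-weighted mean bin number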
# condition.notes: treatment: DMSO; c terminus: a fixed tail appended
Exercise: state measured protein stability index for each of the sequences provided.
Please respond with just the number, no unit label.

I have this sequence here, SEKASKKYVSKELAKEIRVKAEPF [EIF5] , and I need its recorded protein stability index.
4.29

What protein stability index value was documented for this sequence, CEKRCSYCNFNKYIPRRLEEAAMQ [RSAD1] ?
2.4

Look up protein stability index: TLWKHQFAWPFYQPVDAIKLNLPD [BRD3]
2.46

Data request, read-out protein stability index, for TSDLGTTDVQKKKLVDAIVSGDTS [RIPK4]
4.97

I am curious: what protein stability index value has been reported for ATSVTVPGAGVPSGSGGTVAPATM [ZBTB22] ?
4.7

Can you look up the measured protein stability index of LGLGSMIGTMAGITTPIIDTFKVP [SLC6A17] for me?
2.55

Query: protein stability index; subject: PPRQALGSLCSPWAAPRVGPLPPA [YPEL3]
3.16

GET /values?readout=protein stability index&item= PPPPPSPSSLGPLLPLQREPLYNW [BTBD1]
3.78

Return reported protein stability index; argument: LNKELNENQLVRKQDVLGPSTTPP [SASS6]
5

What does the record list as protein stability index for YRFFKYIENRDVAKSVLKERGLKK [BTBD10] ?
2.44

GET /values?readout=protein stability index&item= ALAREFSCPFFETSAAYRYYIDDV [RIT1]
2.29

Which protein stability index reading was recorded for the sequence PDLRQDFNMMEQKKRVSMILQSPA [ADD1] ?
3.7

Need protein stability index of PKGSLSMGPAPRARPWTRDSASLP [RASAL3] , thanks.
3.81

Need protein stability index, item DWVVVKEPVIKVAAIDNGLAFPLK [PI4K2A]
2.52

Record request: protein stability index value, item LVVQIDNAKLAADDFRTKYQTEQS [KRT33B]
3.18

Would you mind telling me what protein stability index value was observed for EGYTPLMEAAREGHEEMVALLLGQ [ANKRD17] ?
4.07

Given LENVLDPDSFYELKSQPLPLRSSL [TFE3] , state its recorded protein stability index.
3.4

Recorded protein stability index for PGTGKTSLCKALAQKLTIRLSSRY [TRIP13] , please?
2.92

For the sequence ETPGSAVDYPLHDLVLHTNYTATV [TNXB] , what protein stability index is on record?
2.83

Tell me the measured protein stability index of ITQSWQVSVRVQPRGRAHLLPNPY [C22orf15] , please.
2.59

// query protein stability index value for entry LQLAIPRENAQISLDGDVTFFGAL [TNFSF13B]
2.1

Form field: reported protein stability index of CQVALNFANEEEAKKFRKAVTDLL [WASL]
1.91

Give its protein stability index value. Item: SEGDLKNAIRVHHALATRASDYSK [PSD2]
4.04

I have this sequence here, LGSQIKSLCNLEESITSAGRDDLE [FAM98B] , and I need its recorded protein stability index.
4.63

Query (sequence): IQNSDNDLPVVQGSSSFSLKGYPS [TRIM29] ; field requested: protein stability index
3.91

What value of protein stability index has been reported for the following sequence? TLRSHLKSFSMAKGLNARMMRGLS [RAB40A]
2.47

May I ask what protein stability index has been recorded for SIPLMGFEFEVRVCDSCHEAITDE [WDFY2] ?
3.38

So what does the record say about protein stability index for RSVSEPRDQHPQPSLGDSLESIPS [RTN2] ?
5.34

Please give the measured protein stability index for this sequence: WHLKQSPASPERDYSPYYKTIEEL [KRT13]
3.26

Dear colleague, I am looking for the recorded protein stability index of the following sequence: QSLDEPGGATFLLTAKQLIKSIVE [TRIM63]
2.6

Given the sequence PDAIRSRSNTLRERSQVRGSAPPR [PCDHGC5] , what is its reported protein stability index?
5

Looking for the measured protein stability index of TLIVVDASGLGLEITTQFLIYASY [SLC19A2] , can you help?
3.32

Recorded protein stability index of TSAAALSPMSAATLGGLNPSPSEV [SMTNL2] , please.
4.61

State the recorded protein stability index for this entry: YLLHPAAFHGAPSHLPTRSPSFPE [TBX6]
2.49

Would you mind telling me what protein stability index value was observed for ELDAIIEEVDEDGSGTIDFEEFLV [TNNC2] ?
4.4

Item CLQQKQVVAEAQTRVSQLGLQVEG [LRRC45] has what recorded protein stability index?
3.86

Which measured protein stability index value corresponds to TADHRIYSYVVSRPQPRGLLGWGY [FAF2] ?
2.16

Which protein stability index is reported for this sequence? SGRFIVIIPRTVIDGLDLLKKEHP [SMG5]
2.9

Which value of protein stability index has been reported for GLDPEPLPLMDLCRRSIRSALGRQ [SPSB4] in the records?
3.79

What value of protein stability index has been reported for the following sequence? SFIITLGCNSVLIQFATPNDFCSF [CARM1]
3.3

Consider the sequence shown here: IALVENIPEGLNYSENAPFHLSLF [PLD5] What is its recorded protein stability index?
2.2

Request the reported protein stability index associated with TDAKKREALYAQDPSTGCYMYYFQ [KMT5A]
2.48

Data request, read-out protein stability index, for AEDTEKKDEPSKYNQQQALIDQRY [CEP70]
5.2

Bench note: what protein stability index did TPMRVALAGTFHYYSCERAKKAMG [NSDHL] show?
2.48

What measured protein stability index goes with VLELLGPSLEDLFDLCDRTFSLKT [CSNK1G3] ?
2.38

What does the data say about its protein stability index? Entry: MHHCKRYRSPEPDPYLSYRWKRRR [CLK3]
3.49

Returns the measured protein stability index for the input sequence. Input: CIDFNKNLNEDDTFLVFSKAELGA
2.88

Look up protein stability index: NGIHVCMVFEVLGHHLLKWIIKSN [SRPK2]
3.01

// returns reported protein stability index for input ELAEHRCHPVERGIKSKEAEEYRL [PSD2]
4.89

Look up protein stability index: FPLMTIEEFAAGPAQSGILSDREV [BTBD1]
3.83

I am curious: what protein stability index value has been reported for VFKQAKDKVSDGVTKSPEKRSSLP [MAP2] ?
4.92

Sample LCLDLAPSETGNTFVSGGCDKKAM [GNB5] — what was its protein stability index?
3.96

Would you kindly share the measured protein stability index for EREKVTPLMVKGFRDAAEEGGTAV [SEPHS2] ?
5.24
